Tested on: BT-549
experiment-summary: drug sensitivity score (DSS), CellTiter-Glo (DSS (AUC-based score)); higher = stronger drug effect (viability inhibition or cytotoxicity); extreme values may be limits of the assay
condition-summary: incubation time: 72 h
Recorded drug sensitivity score by entry
I'd appreciate a reply containing only the number, no unit.

A selection of reference data follows.
C=CC(=O)N1CCC[C@@H](n2nc(-c3ccc(Oc4ccccc4)cc3)c3c(N)ncnc32)C1 [Ibrutinib]; 0
Nc1nc(F)nc2c1ncn2[C@@H]1O[C@H](CO)[C@@H](O)[C@@H]1O [Fludarabine]; 0.896
C[C@H]1C[C@@H]2[C@H]([C@@H](O)C[C@@]3(C)[C@H]2CC[C@]3(O)C(=O)CO)[C@@]2(C)C=CC(=O)C=C12 [Methylprednisolone]; 0

Reported BT-549 drug sensitivity score for item COc1cc2c(Oc3ccc4[nH]c(C)cc4c3F)ncnc2cc1OCCCN1CCCC1 [Cediranib] was 0

Reported BT-549 drug sensitivity score for item CC[C@H](C)C(=O)O[C@H]1C[C@H](O)C=C2C=C[C@H](C)[C@H](CC[C@@H](O)C[C@@H](O)CC(=O)O)[C@H]21 [Pravastatin] was 2.77

Reported BT-549 drug sensitivity score for item Nc1nc2[nH]cc(CCc3ccc(C(=O)N[C@@H](CCC(=O)O)C(=O)O)cc3)c2c(=O)[nH]1 [Pemetrexed] was 0

Reported BT-549 drug sensitivity score for item CC[C@H](Nc1ncnc2[nH]cnc12)c1nc2cccc(F)c2c(=O)n1-c1ccccc1 [GS-1101] was 2.49

Reported BT-549 drug sensitivity score for item CC[C@@H]1C(=O)N(C)c2cnc(Nc3ccc(C(=O)NC4CCN(C)CC4)cc3OC)nc2N1C1CCCC1 [BI 2536] was 21.3

* * *

Tested on: BT-549
experiment-summary: normalised response (% of control), CellTox Green; higher = less cell death (100 = DMSO, 0 = benzethonium chloride kill control)
condition-summary: incubation time: 72 h
Recorded normalised response by entry
Reply numerically in %, unit not repeated.

A selection of reference data follows.
COc1cc2c(Oc3ccc4[nH]c(C)cc4c3F)ncnc2cc1OCCCN1CCCC1 [Cediranib] (10 nM); 104
Nc1ccccc1NC(=O)c1ccc(CNC(=O)OCc2cccnc2)cc1 [Entinostat] (100 nM); 110
COc1cc2c(NC3CCN(C(C)C)CC3)nc(C3CCCCC3)nc2cc1OCCCN1CCCC1 [UNC0638] (1000 nM); 81.2
Nc1ncn([C@H]2C[C@H](O)[C@@H](CO)O2)c(=O)n1 [Decitabine] (10000 nM); 130
COc1cc([C@@H]2c3cc4c(cc3[C@@H](O[C@@H]3O[C@@H]5CO[C@@H](c6cccs6)O[C@H]5[C@H](O)[C@H]3O)[C@H]3COC(=O)[C@H]23)OCO4)cc(OC)c1O [Teniposide] (10000 nM); 59
C=CC(=O)Nc1cc2c(Nc3ccc(F)c(Cl)c3)ncnc2cc1OCCCN1CCOCC1 [Canertinib] (1000 nM); 135

Given item CCCCC(=O)OCC(=O)[C@]1(O)Cc2c(O)c3c(c(O)c2[C@@H](O[C@H]2C[C@H](NC(=O)C(F)(F)F)[C@H](O)[C@H](C)O2)C1)C(=O)c1c(OC)cccc1C3=O [Valrubicin] (50 nM) , the value recorded as its normalised response is 121

Given item CC[C@H](C)C(=O)O[C@H]1C[C@H](O)C=C2C=C[C@H](C)[C@H](CC[C@@H](O)C[C@@H](O)CC(=O)O)[C@H]21 [Pravastatin] (1000 nM) , the value recorded as its normalised response is 85.2

Given item Oc1ncc(N(CCCl)CCCl)c(O)n1 [Uracil mustard] (1000 nM) , the value recorded as its normalised response is 103

Given item C=CCc1cccc(/C=N/NC(=O)CN2CCN(Cc3ccccc3)CC2)c1O [PAC-1] (10000 nM) , the value recorded as its normalised response is 2.94

Given item C[C@H]1C[C@@H]2[C@H]([C@@H](O)C[C@@]3(C)[C@H]2CC[C@]3(O)C(=O)CO)[C@@]2(C)C=CC(=O)C=C12 [Methylprednisolone] (1000 nM) , the value recorded as its normalised response is 131

Given item CC1=C(/C=C/C(C)=C/C=C/C(C)=C/C(=O)O)C(C)(C)CCC1 [Tretinoin] (10000 nM) , the value recorded as its normalised response is 76.9

Given item C=CCc1cccc(/C=N/NC(=O)CN2CCN(Cc3ccccc3)CC2)c1O [PAC-1] (100 nM) , the value recorded as its normalised response is 101

* * *

Test system: MCF-10A
experiment-summary: drug sensitivity score (DSS), CellTox Green (DSS (AUC-based score)); higher = stronger drug effect (viability inhibition or cytotoxicity); extreme values may be limits of the assay
condition-summary: incubation time: 72 h
quantity: drug sensitivity score

A selection of reference data follows.
O=C(Cc1ccc(-c2ccc(OCCN3CCOCC3)cc2)cn1)NCc1ccccc1; 15.5
C=CC(=O)Nc1cc2c(Nc3ccc(F)c(Cl)c3)ncnc2cc1OCCCN1CCOCC1; 8.86

Reported MCF-10A drug sensitivity score for item `CC[C@H](C)C(=O)O[C@H]1C[C@H](O)C=C2C=C[C@H](C)[C@H](CC[C@@H](O)C[C@@H](O)CC(=O)O)[C@H]21` was 2.17

Reported MCF-10A drug sensitivity score for item `COc1cc2nccc(Oc3ccc(NC(=O)Nc4cc(C)on4)c(Cl)c3)c2cc1OC` was 0

* * *

Tested on: HCC1599
condition-summary: 72 h
Recorded EC50, CellTiter-Blue viability by entry
Reply numerically in µM, unit not repeated.

A selection of reference data follows.
C=CC(=O)Nc1cc2c(Nc3ccc(F)c(Cl)c3)ncnc2cc1OCCCN1CCOCC1; 9.08
O=C(/C=C/c1cccnc1)NCCCCC1CCN(C(=O)c2ccccc2)CC1; 0.0139
CC(=O)Nc1cccc(-n2c(=O)n(C3CC3)c(=O)c3c(Nc4ccc(I)cc4F)n(C)c(=O)c(C)c32)c1; 0.0315
N#Cc1ccc(C(c2ccc(C#N)cc2)n2cncn2)cc1; 0.311
CC1=C(/C=C/C(C)=C/C=C/C(C)=C/C(=O)O)C(C)(C)CCC1; 0.133
Cc1cnc(NC(=O)Nc2cc(Br)c(C)cc2OC[C@@H]2CNCCO2)cn1; 0.221

Given item `CC[C@H](Nc1ncnc2[nH]cnc12)c1nc2cccc(F)c2c(=O)n1-c1ccccc1` , the value recorded as its EC50, CellTiter-Blue viability is 0.0942

* * *

System: CAL-51
experiment-summary: normalised viability (% of control), CellTiter-Blue; higher = more viable cells (about 100 = DMSO control)
condition-summary: 100 nM; incubation time: 72 h
quantity: normalised viability (%)
Reply numerically in %, unit not repeated.

A selection of reference data follows.
Nc1nc2[nH]cc(CCc3ccc(C(=O)N[C@@H](CCC(=O)O)C(=O)O)cc3)c2c(=O)[nH]1; 107
Cc1ccc(-c2cc(C(F)(F)F)nn2-c2ccc(S(N)(=O)=O)cc2)cc1; 94.4
CC1=C(/C=C/C(C)=C/C=C/C(C)=C/C(=O)O)C(C)(C)CCC1; 99.6
O=C(O)C1(C(=O)O)CCC1.[NH2-].[NH2-].[Pt+2]; 96.2
Nc1nc(F)nc2c1ncn2[C@@H]1O[C@H](CO)[C@@H](O)[C@@H]1O; 91.9
COc1cc2nccc(Oc3ccc(NC(=O)Nc4cc(C)on4)c(Cl)c3)c2cc1OC; 96.3
C[C@H]1C[C@@H]2[C@H]([C@@H](O)C[C@@]3(C)[C@H]2CC[C@]3(O)C(=O)CO)[C@@]2(C)C=CC(=O)C=C12; 98.2
N#Cc1ccc(C(c2ccc(C#N)cc2)n2cncn2)cc1; 103
CCc1cncnc1N1CCN(Cc2nc3ccc(C(F)(F)F)cc3[nH]2)CC1; 91.5

Here's the next entry for you.
Given item `O=C(Cc1ccc(-c2ccc(OCCN3CCOCC3)cc2)cn1)NCc1ccccc1` , the value recorded as its normalised viability is 20

* * *

Test system: HCC1143
experiment-summary: normalised viability (% of control), CellTiter-Blue; higher = more viable cells (about 100 = DMSO control)
condition-summary: 100 nM; incubation time: 72 h
Recorded normalised viability by entry
Reply numerically in %, unit not repeated.

COc1cc2nccc(Oc3ccc(NC(=O)Nc4cc(C)on4)c(Cl)c3)c2cc1OC [Tivozanib]; 113

Given item C[C@H]1C[C@@H]2[C@H]([C@@H](O)C[C@@]3(C)[C@H]2CC[C@]3(O)C(=O)CO)[C@@]2(C)C=CC(=O)C=C12 [Methylprednisolone] , the value recorded as its normalised viability is 86.6

Given item CC1=C(/C=C/C(C)=C/C=C/C(C)=C/C(=O)O)C(C)(C)CCC1 [Tretinoin] , the value recorded as its normalised viability is 86.2

Given item O=C(O)C(=O)O.[NH-][C@@H]1CCCC[C@H]1[NH-].[Pt+2] [Oxaliplatin] , the value recorded as its normalised viability is 98.2

Cited source for all entries: the supplement of paper PMC4862054
